Experimental System: T1, RSV F ectodomain stabilized in the postfusion conformation (F ΔFP), subtype A (Respiratory syncytial virus subtype A, UniProt P03420 26-109; P03420 147-524)
T1 construct: extracellular domain; trimer; also called Postfusion subtype A; Postfusion RSV F
Experiment: BLI, IgG on AHQ sensors, 100 nM antigen
Test Readout: Kd (nM)
Reply with just the number (in nM).

# Binder, Kd (nM)
records = [
    ("ADI-14537 (antibody, V domains shown, IgG; also called Antibody Number 97) VH: EVQLVESGGGLVKPGGSLRLSCAASGFIFRNAWMSWVRQAPGKGLEWVGRIKRTSEGGSVDYATPVQGRFSISRDDSRKTLYLQMNSLETDDTAVYYCSTGPPYSYFDSSGYSVVDYWGLGTLVTVSS VL: QPVLTQPPSASGTPGQRVTISCSASSSNIGDNYFYWYQQLPGKAPTLLMYGSDQRSSGVPDRFSGSQSGTSASLAISGLRSEDEADYYCAAWDDSLSGPVFGGGTKLTVL", 0.211),
]

Inquiry: Data request, read-out Kd, for ADI-14529 (antibody, V domains shown, IgG; also called Antibody Number 89) VH: EVQLVESGGGLVKPGGSLRLSCAASGFIFRNAWMSWVRQAPGKGLEWVGRIKRTSEGGSVDYATPVQGRFSISRDDSRNTLYLQMNSLETDDTAVYYCSTGPPYSYFDSSGYSVVDYWGQGTLVTVSS VL: QSVVTQPPSVSGTPGQRVTISCTGSSSNIGTPFDVHWYQQIPETAPKLIISGGFSRPSGVPDRFSGSQSGTSASLAISGLRSEDEGDYYCAAWDDSLSGPVFGGGTKLTVL
Reply text: 1.71
